- Tested on: Staphylococcus aureus
- Protocol Notes: Antibacterial activity against Staphylococcus aureus ATCC 43300 after 24 hrs by resazurin dye based broth microdilution method
- Type: functional
- Assay Conditions: ATCC 43300, 24 h
Documented MIC across a set of compounds
Kindly provide the numeric value in µg/mL only, without the unit symbol.

1) CC(=O)O[C@H]1C[C@@]2(C)[C@@H](CC[C@H]3[C@@]4(C)CCC(=O)[C@@H](C)[C@@H]4CC[C@@]32C)/C1=C(\CCC=C(C)C)C(=O)O	6.25
2) CC(=O)O[C@H]1C[C@@]2(C)[C@@H](CC[C@H]3[C@@]4(C)C=CC(=O)[C@@H](C)[C@@H]4[C@H](OC(C)=O)C(=O)[C@@]32C)/C1=C(\CCC=C(C)C)C(=O)O	12.5
3) CC(=O)O[C@H]1C[C@@]2(C)[C@@H](CC[C@H]3[C@@]4(C)CCC(=O)[C@@H](C)[C@@H]4[C@H](OC(C)=O)C(=O)[C@@]32C)/C1=C(\CCC=C(C)C)C(=O)O	50
4) CC(=O)O[C@H]1C[C@@]2(C)[C@@H](CC[C@H]3[C@@]4(C)CCC(=O)[C@@H](C)[C@@H]4[C@H](O)C(=O)[C@@]32C)/C1=C(\CCC=C(C)C)C(=O)O	12.5

Now consider the entry below.
Tell me reported MIC for `CC(=O)O[C@H]1C[C@@]2(C)[C@@H](CC[C@H]3[C@@]4(C)CCC(=O)[C@@H](C)[C@@H]4C[C@@H](O)[C@@]32C)/C1=C(\CCC=C(C)C)C(=O)O` , tested with Staphylococcus aureus. 6.25

Source listed as ChEMBL document CHEMBL4613260.
